Task for the reader: assign each of the following proteins its reported Percent cleavage.
# TESTED TARGET: AxCT mask27 EGFR EH104 L054 version 1
Record the value in %, omitting the unit from your answer.

Percent cleavage recorded for this protein, Neutrophil Elastase (protein) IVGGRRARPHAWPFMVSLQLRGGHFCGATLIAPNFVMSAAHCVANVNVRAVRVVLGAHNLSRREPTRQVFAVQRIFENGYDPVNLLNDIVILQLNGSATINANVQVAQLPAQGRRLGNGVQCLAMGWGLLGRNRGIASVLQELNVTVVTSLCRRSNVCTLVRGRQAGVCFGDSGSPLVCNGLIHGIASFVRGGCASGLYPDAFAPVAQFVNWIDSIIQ , is 23

Percent cleavage recorded for this protein, MMP-1 (protein) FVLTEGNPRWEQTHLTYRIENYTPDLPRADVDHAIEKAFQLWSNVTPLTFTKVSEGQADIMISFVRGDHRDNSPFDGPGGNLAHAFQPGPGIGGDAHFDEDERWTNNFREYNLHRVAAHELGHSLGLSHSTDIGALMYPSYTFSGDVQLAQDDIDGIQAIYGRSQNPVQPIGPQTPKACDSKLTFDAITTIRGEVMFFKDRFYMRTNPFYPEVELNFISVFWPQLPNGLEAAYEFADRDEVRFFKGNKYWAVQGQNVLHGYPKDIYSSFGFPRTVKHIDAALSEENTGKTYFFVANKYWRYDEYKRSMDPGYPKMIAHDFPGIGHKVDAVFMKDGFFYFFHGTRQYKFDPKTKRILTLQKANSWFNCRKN , is 0

Percent cleavage recorded for this protein, Matriptase (protein) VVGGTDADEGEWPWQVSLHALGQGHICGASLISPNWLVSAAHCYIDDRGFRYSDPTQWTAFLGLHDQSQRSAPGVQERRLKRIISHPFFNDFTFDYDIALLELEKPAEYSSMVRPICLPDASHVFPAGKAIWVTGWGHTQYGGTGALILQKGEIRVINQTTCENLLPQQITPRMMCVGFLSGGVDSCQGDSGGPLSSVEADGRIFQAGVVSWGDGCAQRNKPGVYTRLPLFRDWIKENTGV , is 37

Percent cleavage recorded for this protein, MMP-12 (protein) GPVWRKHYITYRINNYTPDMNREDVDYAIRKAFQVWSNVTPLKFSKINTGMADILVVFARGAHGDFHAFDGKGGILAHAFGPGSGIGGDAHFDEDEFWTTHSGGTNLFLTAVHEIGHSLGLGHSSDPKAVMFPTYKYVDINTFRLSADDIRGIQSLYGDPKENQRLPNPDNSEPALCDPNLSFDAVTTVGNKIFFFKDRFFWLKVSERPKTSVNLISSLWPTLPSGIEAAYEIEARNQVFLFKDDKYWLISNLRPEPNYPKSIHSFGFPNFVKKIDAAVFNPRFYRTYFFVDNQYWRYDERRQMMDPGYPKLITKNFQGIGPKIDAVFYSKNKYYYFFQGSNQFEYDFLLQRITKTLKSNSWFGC , is 30

Provenance of the data: patent US20240336909
